FYI, the data here is from ChEMBL document CHEMBL1145498.

- systemTested: Serine/threonine-protein kinase 16 (Homo sapiens) (UniProt O75716)
- Sequence (O75716 whole entry): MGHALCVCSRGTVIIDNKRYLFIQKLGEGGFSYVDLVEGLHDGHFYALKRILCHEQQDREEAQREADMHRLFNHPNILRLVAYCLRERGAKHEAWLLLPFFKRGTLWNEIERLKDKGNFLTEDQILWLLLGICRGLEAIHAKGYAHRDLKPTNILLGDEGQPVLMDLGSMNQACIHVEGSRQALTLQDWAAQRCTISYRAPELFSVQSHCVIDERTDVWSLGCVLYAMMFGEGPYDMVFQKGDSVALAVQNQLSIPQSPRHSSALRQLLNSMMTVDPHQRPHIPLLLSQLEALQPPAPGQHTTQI
endpoint: ΔTm (°C)

compound: O=c1cc(N2CCOCC2)oc2c(-c3ccccc3)cccc12
systemTested: Serine/threonine-protein kinase 16 (Homo sapiens) (UniProt O75716)
units: °C
obsValue: 0.4
--
compound: O=C(Nc1cccc(Nc2nccc(Nc3cccc(C(F)(F)F)c3)n2)c1)C1CC1
systemTested: Serine/threonine-protein kinase 16 (Homo sapiens) (UniProt O75716)
units: °C
obsValue: 2.3
--
compound: COc1cc2ncnc(Nc3ccc(F)c(Cl)c3)c2cc1OCCCN1CCOCC1
systemTested: Serine/threonine-protein kinase 16 (Homo sapiens) (UniProt O75716)
units: °C
obsValue: 3.1
--
compound: O=c1c(-c2ccc(F)cc2)c(-c2ccncc2)[nH]n1-c1ccc(Cl)cc1
systemTested: Serine/threonine-protein kinase 16 (Homo sapiens) (UniProt O75716)
units: °C
obsValue: 0.1
--
compound: O=C1c2ccccc2-[n+]2ccc3c([nH]c4ccccc43)c21 [FASCAPLYSIN CHLORIDE]
systemTested: Serine/threonine-protein kinase 16 (Homo sapiens) (UniProt O75716)
units: °C
obsValue: -0.1
--
compound: Nc1n[nH]c2nnc(-c3c(-c4ccccc4)nn4ccccc34)cc12
systemTested: Serine/threonine-protein kinase 16 (Homo sapiens) (UniProt O75716)
units: °C
obsValue: 0
--
compound: O=c1c(-c2ccc(O)cc2)coc2cc(O)cc(O)c12
systemTested: Serine/threonine-protein kinase 16 (Homo sapiens) (UniProt O75716)
units: °C
obsValue: 4.3
--
compound: N#C/C(=C(/N)Sc1ccc(N)cc1)c1ccccc1C(F)(F)F
systemTested: Serine/threonine-protein kinase 16 (Homo sapiens) (UniProt O75716)
units: °C
obsValue: 0.2
--
compound: COc1ccc(CNC(=O)Nc2ncc([N+](=O)[O-])s2)cc1
systemTested: Serine/threonine-protein kinase 16 (Homo sapiens) (UniProt O75716)
units: °C
obsValue: 0.3
--
compound: C[C@@H](N)[C@H]1CC[C@H](C(=O)Nc2ccncc2)CC1
systemTested: Serine/threonine-protein kinase 16 (Homo sapiens) (UniProt O75716)
units: °C
obsValue: 0.6
